The compounds listed here are annotated with their melting point.

Study these solved cases before continuing.
>>> val("CC1CCCCN1c1nc(-c2ccc(Cl)cc2)c(CCC(=O)O)o1 (stereo not given)")
"126 to 128 °C"
>>> val("COc1ccc(-c2c(C)c3cccc4c3n2CC(CCN2CCN(c3cc(C)ccn3)CC2)O4)cc1 (stereo not given)")
"165 °C"
>>> val("CCOC(=O)C1CCc2[nH]c3ccccc3c2C1 (stereo not given)")
"95 to 96 °C"

Qu. Give its melting point value. Item: CC(C)c1ccnc(C(C)C)c1N
Ans. 35 to 39 °C

Qu. Give its melting point value. Item: Cc1cccc(-c2[nH]c(C(C)C)nc2-c2cccc(-c3ccc(NS(=O)(=O)C4CC4)cc3F)c2)n1
Ans. 124 to 128 °C

Qu. Give its melting point value. Item: CCCc1c(OCCCOc2ccc(C(C)=O)c(OCc3ccccc3)c2CCC)ccc2c1OC(CO)CC2 (stereo not given)
Ans. 83 to 85 °C

Qu. Give its melting point value. Item: CCCCC1NC(/C=C(\Cc2cccs2)C(=O)O)=CN1Cc1ccc(C(=O)O)c(-c2ccccc2)c1 (stereo not given)
Ans. 158 to 161 °C

----------
result_type: melting point

Study these solved cases before continuing.
>>> val("CCNC(C)c1nc(CSCCNC(=C[N+](=O)[O-])NC)cs1 (configuration not stated)")
"114 to 116 °C"
>>> val("CN1C(C)(C)CC(NC(=O)c2ccc(-c3nc4cc(Cl)c(Cl)cc4[nH]3)cc2)CC1(C)C")
"> 280 °C"
>>> val("ClC1=Nc2ccccc2Sc2ncccc21")
"134 to 135 °C"
>>> val("Cc1c(-c2ccccc2)nn(C(C)(C)C(=O)N(C)C)c1Cl")
"96 to 99 °C"
>>> val("O=C(CCCCCCC(=O)N1CCN(CCc2ccc3ccccc3c2)CC1)NO")
"118 to 120 °C"
>>> val("COc1ccc(S(=O)(=O)N(C)c2cccc(-c3ccnc4c([N+](=O)[O-])cnn34)c2)cc1")
"205 to 206 °C"
>>> val("c1cc(-n2ccnc2)nc(-n2cnc3cc(-c4ccoc4)ccc32)c1")
"170 to 173 °C"
>>> val("O=[N+]([O-])c1cc(S(=O)(=O)NC(CO)CO)sc1Cl")
"132 °C"
>>> val("CCCOc1ccc(CC(=O)NCCc2ccc(OCC)c(OCC)c2)cc1OCCC")
"99 °C"
>>> val("CNc1cc(Oc2ccc3c(c2)OCCN3C(=O)Nc2ccc(C)c(C(F)(F)F)c2)ncn1")
"180 to 182 °C"

Qu. Give its melting point value. Item: CC(C)(C)OC(=O)CNC(=O)OCC1c2c(c3ccccc3c3ccccc23)-c2c1c1ccccc1c1ccccc21
Ans. 170 to 171 °C

Qu. Give its melting point value. Item: CC(Cl)N1C(=O)CCC1=O (configuration not stated)
Ans. 83.5 to 84.5 °C

Qu. Give its melting point value. Item: Nc1ccccc1C(=O)CCC(=O)O
Ans. 103 to 107 °C

Qu. Give its melting point value. Item: CCOC(=O)C(=CN(CC)c1ccc(C=O)s1)C(=O)OCC
Ans. 45 °C

Qu. Give its melting point value. Item: O=S(=O)(c1nc(-c2ccc(F)cc2)c(-c2cccs2)[nH]1)C(F)(F)C(F)F
Ans. 192 to 193 °C

Qu. Give its melting point value. Item: CCOC(CN1CCOCC1)CN1C(=O)c2ccccc2CS1(=O)=O (configuration not stated)
Ans. 128 to 129 °C

Qu. Give its melting point value. Item: CCS(=O)(=O)c1nnc(NN)s1
Ans. 166 to 167 °C

Qu. Give its melting point value. Item: CCCc1nc2c(C)ccnc2n1Cc1ccc(-c2ccccc2-c2nnn[nH]2)cc1
Ans. 200 to 202 °C

Qu. Give its melting point value. Item: CCCCCCCCCCc1cccc(C(=O)N(O)CCCC(=O)O)c1
Ans. 77 to 79 °C

Qu. Give its melting point value. Item: Nc1cc(Cl)c(Cl)cc1C(=O)O
Ans. 196 to 203 °C
